# System: Nrf2
# PROTOCOL_DETAILS: Evaluation of Nrf2 activation ability (Nrf2d-LacZ / Keap1 HEK293 reporter, Beta-Glo luminescence)
# Type: cell-based, human
# CONDITION_CONTEXT: rated A/B/C, Pharmacological Test Example 1
Kindly state EC50 for each of the entries shown.

COMPOUND: [O-][s+]1nc(O)cc1-n1ncc2cc(-c3ccc(F)cn3)ccc21 (stereo not drawn)
SYSTEM: Nrf2
EC50: 1000 to 5000 nM
//
COMPOUND: [O-][s+]1nc(O)cc1-n1cccn1 (stereo not drawn)
SYSTEM: Nrf2
EC50: 1000 to 5000 nM
//
COMPOUND: [O-][s+]1nc(O)cc1-n1ncc2cc(-c3ccc(N4CCOCC4)nc3)ccc21 (stereo not drawn)
SYSTEM: Nrf2
EC50: 1000 to 5000 nM
//
COMPOUND: O=C1CCCN1c1ccc(-c2ccc3c(cnn3-c3cc(O)n[s+]3[O-])c2)cn1 (stereo not drawn)
SYSTEM: Nrf2
EC50: < 1000 nM
//
COMPOUND: [O-][s+]1nc(O)cc1-n1ncc2cc(Oc3ccccc3)ccc21 (stereo not drawn)
SYSTEM: Nrf2
EC50: 1000 to 5000 nM

Please look at the items below and tell me EC50 for each one, in order.
1. [O-][s+]1nc(O)cc1-n1ncc2cc(C3=CCOCC3)ncc21 (stereo not drawn)
2. COc1cc(C)c2cnn(-c3cc(O)n[s+]3[O-])c2c1 (stereo not drawn)
3. [O-][s+]1nc(O)cc1-n1ncc2cc(-c3cccnc3)ccc21 (stereo not drawn) [Example 38]
4. [2H]c1cccc(-c2ccc3c(cnn3-c3cc(O)n[s+]3[O-])c2)n1 (stereo not drawn) [Example 82]

Result string:
1: 1000 to 5000 nM; 2: 1000 to 5000 nM; 3: < 1000 nM; 4: < 1000 nM
